Origin of measurements: patent US7498460B2

Biological target: human CysLT1 receptor (Homo sapiens, UniProt Q9Y271)
Sequence (Q9Y271 1-337): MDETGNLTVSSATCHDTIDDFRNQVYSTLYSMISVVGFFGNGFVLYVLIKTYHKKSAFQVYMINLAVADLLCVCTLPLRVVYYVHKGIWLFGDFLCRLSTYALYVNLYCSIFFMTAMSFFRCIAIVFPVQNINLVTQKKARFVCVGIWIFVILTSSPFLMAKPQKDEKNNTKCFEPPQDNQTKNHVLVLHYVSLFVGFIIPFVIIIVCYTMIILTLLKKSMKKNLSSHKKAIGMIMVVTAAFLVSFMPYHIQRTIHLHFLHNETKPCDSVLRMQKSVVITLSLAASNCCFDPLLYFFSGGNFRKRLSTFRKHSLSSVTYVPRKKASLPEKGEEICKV
Experiment: Cellular in vitro test to determine the CysLT1 activity (aequorin luminescence, LTD4 stimulation)
Conditions: CHO K1 cells with aequorin and human CysLT1 receptor; agonist LTD4 3×10^−9 M
Exercise: state measured IC50 for each of the compounds provided.
Give your result in nM as a bare value.

Q. Annotate the compound O=C(O)c1ccc(OCCCc2ccc(OCCCC3CCCCC3)cc2)c(C(=O)NC2CCCC(C(=O)O)C2)c1 (stereo not shown) [Example 23] with its measured IC50.
A. 2000

Q. Annotate the compound O=C(O)c1ccc(OCCCc2ccc(OCCCC3CCCCC3)cc2)c(C(=O)N2CCC(C(=O)O)CC2)c1 [Example 31] with its measured IC50.
A. 2500
